# target: JAK2 (Homo sapiens, UniProt O60674)
# Sequence (O60674 whole entry): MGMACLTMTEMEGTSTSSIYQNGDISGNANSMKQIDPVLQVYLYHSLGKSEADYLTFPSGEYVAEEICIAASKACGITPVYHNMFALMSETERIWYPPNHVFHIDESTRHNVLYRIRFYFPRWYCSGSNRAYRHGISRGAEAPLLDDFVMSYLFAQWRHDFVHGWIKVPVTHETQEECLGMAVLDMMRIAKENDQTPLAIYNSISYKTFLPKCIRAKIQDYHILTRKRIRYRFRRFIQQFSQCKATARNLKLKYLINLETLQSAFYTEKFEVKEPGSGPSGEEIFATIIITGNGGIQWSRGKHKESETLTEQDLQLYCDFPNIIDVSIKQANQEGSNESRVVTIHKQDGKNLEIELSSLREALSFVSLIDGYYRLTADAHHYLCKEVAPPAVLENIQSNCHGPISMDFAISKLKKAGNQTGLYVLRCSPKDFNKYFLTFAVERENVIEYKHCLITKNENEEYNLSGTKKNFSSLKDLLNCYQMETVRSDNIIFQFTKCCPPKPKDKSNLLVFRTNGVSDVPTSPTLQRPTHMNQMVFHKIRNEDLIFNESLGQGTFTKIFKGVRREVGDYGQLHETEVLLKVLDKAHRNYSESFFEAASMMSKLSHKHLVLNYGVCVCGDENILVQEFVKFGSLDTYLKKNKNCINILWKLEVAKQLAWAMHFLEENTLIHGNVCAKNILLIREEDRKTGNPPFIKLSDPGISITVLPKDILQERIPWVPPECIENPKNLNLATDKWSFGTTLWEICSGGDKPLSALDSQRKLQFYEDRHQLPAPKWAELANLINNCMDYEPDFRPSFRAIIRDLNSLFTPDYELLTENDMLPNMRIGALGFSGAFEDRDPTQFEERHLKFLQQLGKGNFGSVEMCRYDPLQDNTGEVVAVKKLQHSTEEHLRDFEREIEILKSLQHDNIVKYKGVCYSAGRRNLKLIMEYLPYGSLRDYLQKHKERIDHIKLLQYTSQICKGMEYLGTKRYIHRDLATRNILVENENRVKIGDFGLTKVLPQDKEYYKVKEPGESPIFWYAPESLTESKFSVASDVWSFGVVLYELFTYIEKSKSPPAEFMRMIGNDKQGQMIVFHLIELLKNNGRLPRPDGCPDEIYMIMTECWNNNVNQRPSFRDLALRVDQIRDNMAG
# protocol-notes: JAK2 EPO-TF1/pSTAT5 cell-based assay (Cellomics ArrayScan HCS)
# Design: endogenous in cells; host or cells: TF-1 (human erythroid leukemia) cells
# measurement-conditions: TF-1 cells, EPO at 1.6 U/mL, relative IC50, n=65; read-out: IC50, inhibits JAK2 (pSTAT5)
pIC50: −log10 of the molar value.
endpoint-label: pIC50

Cc1cc(Nc2ccc3ncn([C@@H]4CCc5ccc(F)cc54)c3n2)[nH]n1.Cl.Cl [Example 1, dihydrochloride] ... 7.46

* * *

# target: JAK2 (Homo sapiens)
# protocol-notes: JAK LanthaScreen Kinase Assay (TR-FRET), JAK2
# Format: biochemical
# Parameters: purchased Life Technologies #PV4844
# measurement-conditions: enzyme assay, 5 micromolar ATP, n=1; read-out: IC50 against JAK2
endpoint-label: IC50 (nM)

Cc1cc(Nc2ccc3ncn([C@@H]4CCc5ccc(F)cc54)c3n2)[nH]n1.Cl.Cl [Example 1, dihydrochloride] ... 1.7
